# targetOrTestSystem: Cbl-b (Homo sapiens, UniProt Q13191)
# Construct: Cbl-b-HiBit KI Jurkat Cells were purchased from Promega; host or cells: Cbl-b-HiBiT knock-in Jurkat cells
# Sequence (Q13191 whole entry): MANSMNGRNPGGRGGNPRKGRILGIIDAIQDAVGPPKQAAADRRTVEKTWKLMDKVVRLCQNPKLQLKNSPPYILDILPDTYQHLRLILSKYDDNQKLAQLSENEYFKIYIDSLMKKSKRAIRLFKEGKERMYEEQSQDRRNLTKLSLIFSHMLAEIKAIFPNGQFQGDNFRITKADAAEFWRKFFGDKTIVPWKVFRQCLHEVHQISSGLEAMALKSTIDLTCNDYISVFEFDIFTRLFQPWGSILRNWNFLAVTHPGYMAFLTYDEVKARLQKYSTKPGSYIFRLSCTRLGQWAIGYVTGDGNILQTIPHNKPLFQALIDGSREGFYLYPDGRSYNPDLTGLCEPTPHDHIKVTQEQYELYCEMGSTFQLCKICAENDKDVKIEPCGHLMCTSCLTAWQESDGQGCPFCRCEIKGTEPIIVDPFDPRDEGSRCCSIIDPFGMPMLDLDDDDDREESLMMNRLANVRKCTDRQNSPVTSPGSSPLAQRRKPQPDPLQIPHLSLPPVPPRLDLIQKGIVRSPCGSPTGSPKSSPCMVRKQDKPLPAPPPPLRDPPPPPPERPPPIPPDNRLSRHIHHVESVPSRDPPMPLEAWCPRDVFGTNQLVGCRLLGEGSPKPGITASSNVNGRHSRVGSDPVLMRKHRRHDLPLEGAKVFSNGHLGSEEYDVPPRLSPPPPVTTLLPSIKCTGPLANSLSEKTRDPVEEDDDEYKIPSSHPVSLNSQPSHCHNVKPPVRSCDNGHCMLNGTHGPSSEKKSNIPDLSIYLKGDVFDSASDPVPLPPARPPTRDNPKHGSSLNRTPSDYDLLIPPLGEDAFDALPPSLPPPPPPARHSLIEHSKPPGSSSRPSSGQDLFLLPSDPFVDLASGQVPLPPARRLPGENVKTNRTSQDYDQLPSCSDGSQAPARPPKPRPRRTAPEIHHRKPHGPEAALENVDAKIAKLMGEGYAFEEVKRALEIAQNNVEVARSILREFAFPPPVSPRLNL
# procedureDetails: Cbl-b Degradation Method A (FACS, anti-Cbl-b antibody staining)
# Type: cell-based
# conditionSummary: Jurkat, Cbl-b-HiBit KI Jurkat Cells, incubated at least 20 hours; maximum degradation observed; read-out: Cbl-b Degredation Method A Dmax (%)
Listed here are molecules together with their documented Dmax.

Some solved entries appear below for comparison.
molecule="CC1c2nc(N3CCC(O[C@H]4CC[C@@H](CN5CCN(C[C@H]6CCCN(Cc7cc8c(c(C(F)(F)F)c7)CN(c7cccc(C9(Cc%10nncn%10C)COC9)c7)C8=O)C6)CC5)CC4)CC3)ccc2C(=O)N1C1CCC(=O)NC1=O (some centres unmarked) [Example 160]" measvalue="35 to 70%"
molecule="Cn1cnnc1CC1(c2cccc(N3Cc4c(cc(CN5CCCC(N6CC7(CCN(c8ccc9c(c8)C(=O)N(C8CCC(=O)NC8=O)C9=O)CC7)C6)C5)cc4C(F)(F)F)C3=O)c2)COC1 (centres unmarked) [Example 108]" measvalue="< 35%"
molecule="CC1c2cc(N3CCC(CN4CCC5(CC4)CN(c4cc6c(c(C(F)(F)F)c4)CN(c4cccc(C7(Cc8nncn8C)COC7)c4)C6=O)C5)CC3)ccc2C(=O)N1C1CCC(=O)NC1=O (centres unmarked) [Example 138]" measvalue="35 to 70%"

Provide the documented Dmax with Cbl-b (Homo sapiens, UniProt Q13191) as the system for CC1c2nc(N3CCC(O[C@H]4CC[C@H](CN5CCC6(C5)CN(c5cc7c(c(C(F)(F)F)c5)CN(c5cccc([C@]8(Cc9nncn9C)C[C@@H](C#N)C8)c5)C7=O)C6)CC4)CC3)ccc2C(=O)N1C1CCC(=O)NC1=O (some centres unmarked) [Example 178]
35 to 70%

Query for Cbl-b (Homo sapiens, UniProt Q13191): what Dmax does the record show for Cn1cnnc1CC1(c2cccc(N3Cc4c(cc(CN5CCN(C[C@H]6CC[C@H](OC7CCN(c8ccc9c(c8)CC(=O)N9C8CCC(=O)NC8=O)CC7)CC6)CC5(C)C)cc4C(F)(F)F)C3=O)c2)CC(C#N)C1 (some centres unmarked) [Example 316] ?
> 70%

* * *

# targetOrTestSystem: Cbl-b (Homo sapiens, UniProt Q13191)
# Construct: Cbl-b-HiBit KI Jurkat Cells were purchased from Promega; host or cells: Cbl-b-HiBiT knock-in Jurkat cells
# procedureDetails: Cbl-b Degradation Method B (Nano-Glo HiBiT lytic detection)
# Assay type: cell-based
# conditionSummary: Cbl-b-HiBit KI Jurkat Cells, incubated at least 6-24 hours; half maximal degradation; read-out: Cbl-b Degredation Method B IC50
valueType: DC50

compound="Cn1cnnc1CC1(c2cccc(-n3cc4c(C(F)(F)F)cc(CN5CCC(CN6CCC(CN7CCN(c8ccc9c(c8F)CN(C8CCC(=O)NC8=O)C9=O)CC7)CC6)CC5)cc4n3)c2)COC1 (stereo not drawn)" valuetype=DC50 measvalue="> 500 nM"
compound="CC(C)n1c(=O)n(C2CCC(=O)NC2=O)c2ccc(N3CCC(O[C@H]4CC[C@@H](CN5CCN(C[C@H]6CCCN(Cc7cc(C(F)(F)F)c8cn(-c9cccc(C%10(Cc%11nncn%11C)COC%10)c9)nc8c7)C6)CC5)CC4)CC3)cc21 (stereo partly drawn)" valuetype=DC50 measvalue="< 5 nM"
compound="Cn1cnnc1C[C@]1(c2cccc(N3Cc4c(cc(N5CC6(CCN(CC7CCN(c8ccc9c(c8)C(=O)N(C8CCC(=O)NC8=O)C9=O)CC7)CC6)C5)cc4C(F)(F)F)C3=O)c2)C[C@H](C#N)C1 (stereo partly drawn)" valuetype=DC50 measvalue="5 to 50 nM"
compound="CC1c2nc(N3CCC(O[C@H]4CC[C@@H](CN5[C@@H](C)CN(Cc6cc7c(c(C(F)(F)F)c6)CN(c6cccc(C8(Cc9nncn9C)COC8)c6)C7=O)C[C@@H]5C)CC4)CC3)ccc2C(=O)N1C1CCC(=O)NC1=O (stereo partly drawn)" valuetype=DC50 measvalue="< 5 nM"
compound="C[C@H]1CN(C[C@H]2CC[C@@H](OC3CCN(c4ccc5c(c4F)CN(C4CCC(=O)NC4=O)C5=O)CC3)CC2)CCN1Cc1cc2c(c(C(F)(F)F)c1)CN(c1cccc(C3(Cc4nncn4C)COC3)c1)C2=O (stereo partly drawn)" valuetype=DC50 measvalue="< 5 nM"

Name the reported DC50 value associated with the compound Cn1cnnc1CC1(c2cccc(N3Cc4c(cc(CN5CC6(C5)CN(CC5CCN(c7cccc8c7C(=O)N(C7CCC(=O)NC7=O)C8=O)CC5)C6)cc4C(F)(F)F)C3=O)c2)COC1 (stereo not drawn)
> 500 nM

* * *

Recorded measurements of DC50, one per entry
# targetOrTestSystem: Cbl-b (Homo sapiens, UniProt Q13191)
# Construct: Cbl-b-HiBit KI Jurkat Cells were purchased from Promega; host or cells: Cbl-b-HiBiT knock-in Jurkat cells
# procedureDetails: Cbl-b Degradation Method B (Nano-Glo HiBiT lytic detection)
# Type: cell-based
# conditionSummary: Cbl-b-HiBit KI Jurkat Cells, incubated at least 6-24 hours; half maximal degradation; read-out: Cbl-b Degredation Method B IC50

Example cases with answers are listed next.
compound="CC1c2nc(N3CCC(O[C@H]4CC[C@H](CN5C[C@@H]6C[C@H]5CN6Cc5cc6c(c(C(F)(F)F)c5)CN(c5cccc([C@]7(Cc8nncn8C)C[C@H](C#N)C7)c5)C6=O)CC4)CC3)ccc2C(=O)N1C1CCC(=O)NC1=O (stereo partly shown) [Example 214]" targetortestsystem="Cbl-b (Homo sapiens, UniProt Q13191)" measvalue="< 5 nM"
compound="CC(C)n1c(=O)n(C2CCC(=O)NC2=O)c2ccc(N3CCC(O[C@H]4CC[C@@H](CN5CCN(C[C@H]6CCCN(Cc7cc8c(c(C(F)(F)F)c7)CN(c7cccc(C9(Cc%10nncn%10C)COC9)c7)C8=O)C6)C(C)(C)C5)CC4)CC3)cc21 (stereo partly shown) [Example 263]" targetortestsystem="Cbl-b (Homo sapiens, UniProt Q13191)" measvalue="< 5 nM"
compound="CC1c2nc(N3CCC(O[C@H]4CC[C@H](CN5CCN(Cc6ccc7c(n6)C(=O)N(c6cccc(C8(Cc9nncn9C)COC8)c6)C7)CC5)CC4)CC3)ccc2C(=O)N1C1CCC(=O)NC1=O (stereo partly shown) [Example 151]" targetortestsystem="Cbl-b (Homo sapiens, UniProt Q13191)" measvalue="5 to 50 nM"

Shift focus to the following entry.
DC50 of Cn1cnnc1CC1(c2cccc(N3Cc4c(cc(CN5CCC(CCCN6CCN(c7ccc8c(c7)C(=O)N(C7CCC(=O)NC7=O)C8=O)CC6)CC5)cc4C(F)(F)F)C3=O)c2)COC1 (stereo not shown) [Example 61] on Cbl-b (Homo sapiens, UniProt Q13191)?
> 500 nM

* * *

In this section, each of the molecules is paired with its reported Dmax.
# targetOrTestSystem: Cbl-b (Homo sapiens)
# Construct: Cbl-b-HiBit KI Jurkat Cells were purchased from Promega; host or cells: Cbl-b-HiBiT knock-in Jurkat cells
# procedureDetails: Cbl-b Degradation Method B (Nano-Glo HiBiT lytic detection)
# Type: cell-based
# conditionSummary: Cbl-b-HiBit KI Jurkat Cells, incubated at least 6-24 hours; maximum degradation observed; read-out: Cbl-b Degredation Method B Dmax (%)
# Procedure: Cbl-b Degradation Method B [table] Cbl-b-HiBit KI Jurkat Cells were purchased from Promega, and cell media consisted of RPMI 1640 with 10% […] and 1% pen/strep. The cells were counted, measured for viability, and 35 μL of the cell solution was seeded into 384 well flat bottom plates at a ratio of 20,000 cells per 35 μL. […] After incubation, 30 μL of either NanoGlo media was added to each cell, and the plates read on the Synergy Neo2 machine. […]

molecule="CC1c2nc(N3CCC(O[C@H]4CC[C@H](CN5CCN(Cc6cc7c(c(C(F)(F)F)c6)CN(c6cccc(C8(Cc9nncn9C)CCC8)c6)C7=O)CC5)CC4)CC3)ccc2C(=O)N1C1CCC(=O)NC1=O (mixture of isomers)" measvalue="35 to 70%"
molecule="Cn1cnnc1CC1(c2cccc(N3Cc4c(cc(CN5CCC[C@H](CN6CCN(C[C@H]7CC[C@@H](OC8CCN(c9ccc%10c(c9F)CN(C9CCC(=O)NC9=O)C%10=O)CC8)CC7)CC6(C)C)C5)cc4C(F)(F)F)C3=O)c2)CCC1 (stereo partly shown)" measvalue="> 70%"
molecule="CC1c2nc(N3CCC(O[C@H]4CC[C@H](CN5C[C@H]6C[C@@H]5CN6Cc5cc6c(c(C(F)(F)F)c5)CN(c5cccc([C@]7(Cc8nncn8C)C[C@@H](C#N)C7)c5)C6=O)CC4)CC3)ccc2C(=O)N1C1CCC(=O)NC1=O (stereo partly shown)" measvalue="35 to 70%"

For the molecule shown here, C[C@@H]1CN(CC2CCC(OC3CCN(c4ccc5c(n4)[C@@H](C)N(C4CCC(=O)NC4=O)C5=O)CC3)CC2)CCN1Cc1cc2c(c(C(F)(F)F)c1)CN(c1cccc([C@]3(Cc4nncn4C)C[C@H](C#N)C3)c1)C2=O (single isomer, unassigned) , give the reported Dmax.
> 70%

Every entry's value here was drawn from patent US20260184710A1.
